B1: GOLPH3 (parent)
chain: FAPLLDEQYDLATKRVRQLLDLDP

Variants of: B1
test-description: protein stability index of a GFP-peptide fusion (GPS, HEK-293T) (PSI 1-6); higher = more stable;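 note: lentivirally expressed fusions sorted by FACS into six bins by GFP to DsRed ratio, PSI derived from sequencing read proportions per bin multiplied by bin number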
test-parameters: c terminus: a fixed tail appended
This section presents variants with their documented protein stability index values.
The response must contain the number and no unit.

# count of solved cases: 6
| variant-name | metric-name | quantitative-readout |
| --- | --- | --- |
| L4H | protein stability index | 2.31 |
| F1P | protein stability index | 4.59 |
| K14D | protein stability index | 2.94 |
| T13E | protein stability index | 2.56 |
| D21T | protein stability index | 1.9 |
| D10F | protein stability index | 2.69 |

In: // query protein stability index value for entry L22N
Out: 2.46

In: Which protein stability index is reported for this variant? E7R
Out: 2.79

In: Fill blank: measured protein stability index of the variant D21F is ____.
Out: 3.68

In: protein stability index lookup needed for L22D , thanks.
Out: 2.75

In: Entry under review: P24I . Reported protein stability index?
Out: 1.38

In: Consider the variant shown here: A2Y What is its recorded protein stability index?
Out: 2.43
